- EXPERIMENT: Cell accumulation and total recovery of coumarins in the bidirectional transport experiment
- COND: dog, MDCK-pHaMDR cell monolayer, pH 7.4, recovery (both sides of the insert and intracellular), both directions
QUANTITY_KIND: recovery at 90 min, 50 µM

Field request: recovery at 90 min, 50 µM | item: "C/C=C(/C)C(=O)OC(C)(C)[C@@H]1Cc2c(ccc3ccc(=O)oc23)O1"
64 to 68%

---

- EXPERIMENT: Cell accumulation and total recovery of coumarins in the bidirectional transport experiment
- COND: dog, pH 7.4, TR (Total recovery) AP→BL, AP→BL; 50 µM; 90 min; percent of initial amount; n = 6
QUANTITY_KIND: recovery at 90 min, 50 µM (%)
Kindly answer with a numeric value in %, unit omitted.

Field request: recovery at 90 min, 50 µM | item: COc1c2occc2cc2ccc(=O)oc12 [Compound 8, xanthotoxin]
95.2

---

- Tested on: P-gp
- EXPERIMENT: in vitro
- COND: dog, not told, pH 7.4
QUANTITY_KIND: Papp B→A at 90 min, 10 µM (×10⁻⁶ cm/s)
Kindly answer with a numeric value in ×10⁻⁶ cm/s, unit omitted.

Field request: Papp B→A at 90 min, 10 µM | item: COC(=O)c1ccccc1-c1c2ccc(=N)cc-2oc2cc(N)ccc12 [Rh123, Rhodamine 123]
5.27

---

Overview of recorded recovery at 90 min, 50 µM for various compounds
- EXPERIMENT: Cell accumulation and total recovery of coumarins in the bidirectional transport experiment
- COND: dog, MDCK-pHaMDR cell monolayer, pH 7.4, TR (Total recovery) AP→BL, AP→BL; 50 µM; 90 min; percent of initial amount; n = 6
Kindly answer with a numeric value in %, unit omitted.

> print(dat)
                            chemical.smiles  reading
1  C/C=C(/C)C(=O)OC(C)(C)[C@@H]1Cc2c(ccc3ccc(=O)oc23)O1     67.6
2                       O=c1ccc2ccc(O)cc2o1     99.3
3                     COc1cc2ccc(=O)oc2cc1O     87.5
4              COc1ccc2ccc(=O)oc2c1CC=C(C)C      105
5                     O=c1ccc2cc3ccoc3cc2o1     89.9

Field request: recovery at 90 min, 50 µM | item: "COc1c2ccoc2cc2oc(=O)ccc12"
99.2

Field entry: "CC(C)=CCOc1c2ccoc2cc2oc(=O)ccc12"
90.2

---

- EXPERIMENT: in vitro
- COND: dog, MDCK-MDR1, pH 7.4
Overview of recorded efflux ratio at 90 min, 50 µM for various compounds
I only need the number, thanks.

See these solved cases before continuing.
> print(dat)
         chemical.smiles                  quantity.kind  reading
1  COc1cc2ccc(=O)oc2cc1O  efflux ratio at 90 min, 50 µM     0.96
2  O=c1ccc2cc3ccoc3cc2o1  efflux ratio at 90 min, 50 µM     0.98

Turning now to a further record.
Field request: efflux ratio at 90 min, 50 µM | item: "COc1c2ccoc2cc2oc(=O)ccc12"
0.86

---

- Test system: P-gp
- EXPERIMENT: in vitro
- COND: dog, not told, pH 7.4
QUANTITY_KIND: efflux ratio at 90 min, 10 µM

Field request: efflux ratio at 90 min, 10 µM | item: "COC(=O)c1ccccc1-c1c2ccc(=N)cc-2oc2cc(N)ccc12"
4.47

// provenance: paper PMC6332004
